The measurements presented in this section are drawn from ChEMBL document CHEMBL4118177.

# Test system: Staphylococcus aureus
# Test: Antibacterial activity against Staphylococcus aureus ATCC 25923 at 62.5 uM after 24 hrs
# Format: functional, organism-based
Active and inactive are the calls of the source. The calls are words filed in the database; no cut-off is given here.
Outcome field: choose from yes for active, no for inactive

Worked examples, 4 compounds total:
O=C(O)c1cn(C2CC2)c2cc(N3CCNCC3)c(F)cc2c1=O | yes
CCC/C=C/[C@@H]1OC(=O)c2cc(O)cc(O)c2[C@@H]1O | no
CCC[C@H]1OC(=O)/C=C\C=C\[C@H](O)[C@@H](O)[C@@H]1[C@H](C)COC(=O)c1ccc(O)cc1 | no
CCC[C@@H]1C[C@H](O)[C@@H](OC)/C=C/C=C\C(=O)O1 | no

Now examine the next entry.
# fetch the recorded call for CCC[C@@H]1C[C@H](O)[C@@H](O)/C=C/C=C\C(=O)O1 here
no
